Test system: human cytomegalovirus (HCMV) strain AD-169
Test Details: Inhibition of virus-induced cytopathicity, HCMV AD-169, in HEL fibroblasts
Format: cell-based
Details: Human betaherpesvirus 5, AD169, HEL, read-out: Antiviral activity EC50 HCMV AD-169 strain
pEC50: −log10 of the molar value.
Label rule, in plain words: pEC50 of 7 and up is Fulfilled, under 7 is Not fulfilled.

Compound	Class
CCCCCOC(=O)[C@H](CCSC)NP1(=O)CO[C@@H](Cn2cnc3c(N)ncnc32)CO1 (some centres unmarked)	Fulfilled
CCCCCOC(=O)[C@@H](NP1(=O)CO[C@@H](Cn2cnc3c(N)ncnc32)CO1)C(C)C (some centres unmarked)	Fulfilled
CCCCCOC(=O)C[C@H](NP1(=O)CO[C@H](Cn2cnc3c(N)ncnc32)CO1)C(=O)OCCCCC (some centres unmarked)	Not fulfilled
CCCCCOC(=O)[C@@H](NP1(=O)CO[C@@H](Cn2cnc3c(N)ncnc32)CO1)[C@@H](C)CC (some centres unmarked)	Fulfilled
CCCCCOC(=O)CC[C@H](NP1(=O)CO[C@@H](Cn2cnc3c(N)ncnc32)CO1)C(=O)OCCCCC (some centres unmarked)	Fulfilled
CCCCCOC(=O)C[C@H](NP1(=O)CO[C@H](Cn2ccc(N)nc2=O)CO1)C(=O)OCCCCC (some centres unmarked)	Not fulfilled
CCCCCOC(=O)C[C@H](NP1(=O)CO[C@@H](Cn2cnc3c(N)ncnc32)CO1)C(=O)OCCCCC (some centres unmarked)	Fulfilled

* * *

Each entry below carries its reported CC50 at 3 days.
Test Details: in vitro
Details: human

Molecule	Relation Operator	CC50 at 3 days / µM
CCCCCOC(=O)[C@@H](NP1(=O)CO[C@@H](Cn2cnc3c(N)ncnc32)CO1)C(C)C (stereo partly shown)	=	7.76
O=c1[nH]c(=O)n([C@H]2C[C@H](O)[C@@H](CO)O2)cc1/C=C/Br [Brivudin, reference compound]	>	300
CCCCCOC(=O)[C@H](Cc1ccccc1)NP1(=O)CO[C@@H](Cn2cnc3c(N)ncnc32)CO1 (stereo partly shown)	=	30.6
CCCCCOC(=O)[C@H](C)NP1(=O)CO[C@@H](Cn2cnc3c(N)ncnc32)CO1 (stereo partly shown)	=	3.4

* * *

Each entry below carries its reported Cytotoxicity HEL cells MCC.
System: HEL cells
Test Details: Cytotoxicity, minimum cytotoxic concentration (cell morphology) in HEL cells
Details: Table 2; minimum concentration causing microscopically detectable alteration of cell morphology
Assay Readout: Cytotoxicity HEL cells MCC

Compound	Relation Operator	Measured Result
CCCCCOC(=O)C[C@H](NP1(=O)CO[C@@H](Cn2cnc3c(N)ncnc32)CO1)C(=O)OCCCCC (stereo partly drawn)	=	13.6
CCCCCOC(=O)[C@H](C)NP1(=O)CO[C@@H](Cn2cnc3c(N)ncnc32)CO1 (stereo partly drawn)	=	23.5
Nc1nc2c(ncn2COCCO)c(=O)[nH]1 [Acyclovir, reference compound]	>	88.8
O=c1[nH]c(=O)n([C@H]2C[C@H](O)[C@@H](CO)O2)cc1/C=C/Br [Brivudin, reference compound]	>	30.0
Nc1ccn(C[C@@H](CO)OCP(=O)(O)O)c(=O)n1 [Cidofovir, reference compound]	>	71.6
CCCCCOC(=O)[C@@H](NP(=O)(CO[C@H](CO)Cn1cnc2c(N)ncnc21)N[C@H](C(=O)OCCCCC)C(C)C)C(C)C	=	8.57
Nc1nc(O)c2ncn(COC(CO)CO)c2n1 [Ganciclovir, reference compound]	>	39.2
CCCCCOC(=O)[C@@H](NP1(=O)CO[C@@H](Cn2cnc3c(N)ncnc32)CO1)[C@@H](C)CC (stereo partly drawn)	=	9.96
CCCCCOC(=O)[C@H](Cc1ccccc1)NP1(=O)CO[C@@H](Cn2cnc3c(N)ncnc32)CO1 (stereo partly drawn)	=	9.3
